Biological target: T1, Fus1, P11710
T1 sequence (P11710 432-512, looked up): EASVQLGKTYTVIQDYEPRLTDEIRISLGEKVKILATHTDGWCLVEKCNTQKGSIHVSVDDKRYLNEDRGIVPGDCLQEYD
Assay: SPOT array
Conditions: median of control spots 1200
readoutName: SPOT intensity

Sample records with SPOT intensity:
>>> df
            binder     readoutname  reported
0  VTHRLRISIPGITGR  SPOT intensity        14
1  KMSRSPPRPPSLKII  SPOT intensity         0

1. GAGERPRLVPRPINV
2. GRSRLFPHSPLGRSS
input: Quick one: lower SPOT intensity, 1 or 2 ? # respond with the chosen item's label
output: 1
